test system: Aurora2 kinase (Homo sapiens)
Construct: A complete recombinant Aurora2 enzyme; His tag (N); made in house; host or cells: E. coli
Sequence (O14965 whole entry): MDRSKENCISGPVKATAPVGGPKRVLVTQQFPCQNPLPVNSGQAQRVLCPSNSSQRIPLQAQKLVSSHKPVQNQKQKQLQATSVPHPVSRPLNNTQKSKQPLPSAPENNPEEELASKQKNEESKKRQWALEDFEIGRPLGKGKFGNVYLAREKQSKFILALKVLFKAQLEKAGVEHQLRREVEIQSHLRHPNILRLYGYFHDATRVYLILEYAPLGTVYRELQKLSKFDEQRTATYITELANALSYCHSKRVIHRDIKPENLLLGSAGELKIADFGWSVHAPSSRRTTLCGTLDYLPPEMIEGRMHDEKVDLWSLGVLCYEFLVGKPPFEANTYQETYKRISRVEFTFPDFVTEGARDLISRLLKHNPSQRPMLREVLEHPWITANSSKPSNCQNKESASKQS
assay explanation: Aurora2 kinase radioactivity scintillation assay using nickel chelate (NuMA substrate)
Type: biochemical
condition info: 10 μM; read-out: Aurora2 % inhib at 10 μM
outcome measure: inhibition at 10 µM

test smiles: O=C(Nc1n[nH]c2ccc(NS(=O)(=O)c3cc(F)cc(F)c3)cc12)c1ccccc1
val: 95%

test smiles: CS(=O)(=O)c1ccccc1S(=O)(=O)Nc1ccc2[nH]nc(-c3ccccc3F)c2c1
val: 74%

test smiles: CS(=O)(=O)c1ccccc1S(=O)(=O)Nc1ccc2[nH]nc(-c3ccc(Cl)cc3Cl)c2c1
val: 64%

test smiles: O=S(=O)(Nc1ccc2[nH]nc(-c3ccccc3)c2c1)c1ccccc1
val: 100%

meta.source: patent US6858638B2
